assay_explanation: FRG1 expression reporter modulators in myotubes – cell-based, C2C12 myotubes, firefly/Renilla luciferase, luminescence, FRG1 inhibition for FSHD, primary screen (AID 1084)
condition_notes: FRG1 promoter luciferase, higher = more signal, called active from +8 up or from −8 down
For each record, write down the corresponding z-score.
The response must contain the number and no unit.

Incoming: Specify measured z-score for `COc1ccc(CCNC(=O)[C@@H]2c3ccccc3C(=O)N(C3CCCCC3)[C@H]2c2ccc(CO)cc2)cc1` .
Outgoing: -0.335

Incoming: Specify measured z-score for `CCOC(=O)C[C@H]1[C@H](OC(=O)Cc2ccc3c(c2)OCO3)[C@@H](NC(=O)c2ccc3ccccc3n2)c2cc(OCCCO)ccc2N1C(=O)c1ccc2ccccc2n1` .
Outgoing: -2.11

Incoming: Specify measured z-score for `COc1ccc([Si](C)(C)[C@H]2[C@H](CC(=O)N(CCO)Cc3ccccc3)O[C@@]3(C(=O)N(C)c4c(Br)cc(C)cc43)[C@@H]2C)cc1` .
Outgoing: -2.73

Incoming: Specify measured z-score for `O=C(c1ccccc1)N1C(=O)[C@]2(Cc3ccccc31)N=C(c1ccc(OCCCO)cc1)O[C@@H]2c1ccccc1` .
Outgoing: -1.76

Incoming: Specify measured z-score for C=CCC(OC(C)=O)[C@@H]1[C@@H](N(Cc2cc3ccccc3o2)C(=O)Cc2ccc(F)cc2)c2cc(OCCCO)ccc2N1C(=O)Cc1ccc2ccccc2c1 (some centres undefined) .
Outgoing: -1.47

Incoming: Specify measured z-score for `Cc1ccc(S[C@]2(C(=O)NCCN3CCOCC3)CC(=O)N(Cc3ccccc3Cl)[C@@H]2c2ccc(CO)cc2I)cc1` .
Outgoing: -2.03

Incoming: Specify measured z-score for `COc1ccc(C#Cc2ccc3c(c2)[C@]2(C(=O)N3)[C@H](c3ccc(O)cc3)N3[C@H](c4ccccc4)[C@H](c4ccccc4)OC(=O)[C@H]3[C@@H]2C(=O)Nc2nc3ccccc3s2)cc1` .
Outgoing: 1.33

Incoming: Specify measured z-score for C[C@@H]1NC(=O)[C@@H](Cc2ccccc2)NC(=O)[C@@]23C(=O)N[C@@H](Cc4ccccc4)C2[C@H](C)[C@@]2(C)O[C@H]2C3/C=C/C/C=C\CNC1=O (some centres undefined) .
Outgoing: -0.323

Incoming: Specify measured z-score for `CCOC(=O)C=Cc1cccc(C)c1O` .
Outgoing: 1.5

Incoming: Specify measured z-score for `C=CC[C@]1(C(=O)N2CCOCC2)COC(c2ccc(OCCCO)cc2)=N1` .
Outgoing: 0.683

Incoming: Specify measured z-score for `COCCCNC(=O)[C@@]1(Sc2ccc(C)cc2)CC(=O)N(C2Cc3ccccc3C2)[C@@H]1c1ccc(CO)cc1` .
Outgoing: -1.11

Incoming: Specify measured z-score for `C=CCOC(=O)[C@@H]1[C@H]2C(=O)O[C@H](c3ccccc3)[C@H](c3ccccc3)N2[C@H](c2ccc(OCCOC(=O)[C@@H]3C[C@@H]4C(=O)N[C@@H](CCCC[N+](C)(C)C)C(=O)N4[C@@H]3c3ccc(O)cc3)cc2)[C@@]12C(=O)Nc1ccc(I)cc12` .
Outgoing: 3.51

Incoming: Specify measured z-score for `C=CC[C@@H](OC(=O)Nc1ccc(SC)cc1)c1ccc(O)c(F)c1` .
Outgoing: 6.7

Incoming: Specify measured z-score for O=C1NC(=O)C2C1C=CC(C(O)c1ccco1)N2Nc1ccc(Cl)cc1Cl (centres undefined) .
Outgoing: 1.62

Incoming: Specify measured z-score for `CO[C@H]1O[C@H](CO)[C@@H](OC(=O)Nc2ccccc2)[C@H](OC(=O)c2cc3ccccc3[nH]2)[C@H]1OC(=O)c1cc2ccccc2[nH]1` .
Outgoing: -0.542

Incoming: Specify measured z-score for `C#CCN(Cc1ccccc1Br)[C@H](/C=C/c1ccccc1)[C@@H](O)Cc1ccccc1` .
Outgoing: -2.05

Incoming: Specify measured z-score for `O=C1O[C@@H](c2ccccc2)[C@@H](c2ccccc2)N2[C@@H](c3ccc(OCCO)cc3)[C@]3(C(=O)Nc4ccc(C#CC5=CCCCC5)cc43)[C@@H](C(=O)NC[C@H](O)c3ccccc3)[C@H]12` .
Outgoing: 2.03

Incoming: Specify measured z-score for `CN(C)C(=O)[C@]1(Cc2ccccc2CN=[N+]=[N-])N=C(c2ccc(OCCCO)cc2)O[C@@H]1c1ccccc1` .
Outgoing: -3.49

Incoming: Specify measured z-score for `C=C[C@@H](OC)[C@H](OC(=O)Nc1ccc(OC)cc1)c1ccc(O)c(F)c1` .
Outgoing: 3.87

Incoming: Specify measured z-score for Cc1ccccc1C(O)C1C=CC2C(=O)NC(=O)C2N1Nc1ccccn1 (centres undefined) .
Outgoing: 1.08

Incoming: Specify measured z-score for `CCOC(=O)C[C@H]1[C@H](OC(=O)c2ccc(-c3ccccc3)cc2)[C@@H](NC(=O)CC(C)C)c2cc(OCCCO)ccc2N1C(=O)c1ccc2ccccc2n1` .
Outgoing: 0.375

Incoming: Specify measured z-score for COc1cc2c(cc1O)C(c1cccs1)N(Cc1cc3c(cc1Br)OCO3)CC2 (centres undefined) .
Outgoing: 0.364

Incoming: Specify measured z-score for `[N-]=[N+]=Nc1ccccc1[C@@H]1OC(c2ccc(OCCCO)cc2)=N[C@]1(Cc1ccccc1)C(=O)O` .
Outgoing: 0.235

Incoming: Specify measured z-score for `COC(=O)[C@@]1(Cc2ccccc2)[C@H]2c3cc(C(=O)N(C)C)n(Cc4ccc(C)o4)c3C[C@H]2CN1C(=O)c1ccccc1` .
Outgoing: 0.495
